Target: c-kit (Homo sapiens)
Construct: human Mo7e cells which endogenously express c-kit; endogenous in cells; host or cells: human Mo7e cells (promegakaryocytic leukemia line), stimulated with human recombinant SCF
Sequence (P10721 26-976): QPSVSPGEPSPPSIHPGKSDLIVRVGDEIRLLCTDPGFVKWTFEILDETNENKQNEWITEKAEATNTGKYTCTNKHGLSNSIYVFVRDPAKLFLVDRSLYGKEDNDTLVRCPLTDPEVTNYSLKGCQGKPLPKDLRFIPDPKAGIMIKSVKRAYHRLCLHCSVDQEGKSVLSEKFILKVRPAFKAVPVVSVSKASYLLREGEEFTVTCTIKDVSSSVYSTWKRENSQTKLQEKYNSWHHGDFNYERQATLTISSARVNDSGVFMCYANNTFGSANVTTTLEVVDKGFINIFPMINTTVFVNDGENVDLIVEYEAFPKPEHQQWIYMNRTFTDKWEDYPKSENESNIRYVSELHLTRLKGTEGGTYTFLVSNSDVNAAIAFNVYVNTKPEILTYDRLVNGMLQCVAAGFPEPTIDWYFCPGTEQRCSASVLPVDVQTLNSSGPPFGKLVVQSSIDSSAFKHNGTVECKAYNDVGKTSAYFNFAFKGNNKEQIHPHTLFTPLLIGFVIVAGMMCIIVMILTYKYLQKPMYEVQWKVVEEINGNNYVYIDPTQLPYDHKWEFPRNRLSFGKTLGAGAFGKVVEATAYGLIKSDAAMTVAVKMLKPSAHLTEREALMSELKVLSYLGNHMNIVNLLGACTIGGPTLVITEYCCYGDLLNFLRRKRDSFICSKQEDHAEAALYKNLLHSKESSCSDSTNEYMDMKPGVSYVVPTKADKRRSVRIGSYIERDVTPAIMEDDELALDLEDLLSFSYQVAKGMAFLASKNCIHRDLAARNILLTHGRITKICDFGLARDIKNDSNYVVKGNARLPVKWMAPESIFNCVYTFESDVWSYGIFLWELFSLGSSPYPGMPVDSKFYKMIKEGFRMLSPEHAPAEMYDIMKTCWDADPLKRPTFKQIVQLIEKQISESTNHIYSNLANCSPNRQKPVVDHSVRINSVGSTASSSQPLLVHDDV
Assay: Mo7e cell proliferation assay (SCF dependent proliferation)
Type: cell-based
Settings: Table 1; human Mo7e cells stimulated with SCF, 48 hours, CellTiter Glo; 1% FBS; read-out: c-kit (Mo7e)
pIC50: −log10 of the molar value.
RECORDED_ENDPOINT: pIC50

Observe how each entry below is paired with its result.
- COMPOUND: "Cc1ccc(-c2noc(CN3CC(F)(F)C3)n2)cc1NC(=O)c1cnc2ccccn12 [F21]"
  QUANTITATIVE_RESULT: 7.36
- COMPOUND: "Cc1ccc(-c2nc(N3C[C@@H]4C[C@@H](C3)O4)no2)cc1NC(=O)c1cnc2ccccn12 [F3]"
  QUANTITATIVE_RESULT: 7.05
- COMPOUND: "Cc1ccc(-c2noc(CN3CCC(F)(F)C3)n2)cc1NC(=O)c1cnc2ccccn12 [F29]"
  QUANTITATIVE_RESULT: 7.80
- COMPOUND: "COC(=O)N1CC(c2nc(-c3ccc(C)c(NC(=O)c4cnc5ccc(COCC(F)(F)F)cn45)c3)no2)C1 [F84]"
  QUANTITATIVE_RESULT: 7.42
- COMPOUND: "Cc1ccc(-c2noc(N3CC(F)(F)C3)n2)cc1NC(=O)c1cnc2cc(F)ccn12 [F87]"
  QUANTITATIVE_RESULT: 7.04
- COMPOUND: "Cc1ccc(Nc2noc([C@H]3CCCO3)n2)cc1NC(=O)c1cnc2ccccn12 [F71]"
  QUANTITATIVE_RESULT: 7.96

I: COC(=O)NC1(c2nc(-c3ccc(C)c(NC(=O)c4cnc5ccccn45)c3)no2)COC1 [F26]
II: COC(=O)N1CC(c2nc(-c3cc(NC(=O)c4cnc5ccccn45)c(C)cc3C)no2)C1 [F79]
Ask | Which has the higher pIC50, I or II ? Please identify the chosen entry by its label.
Reply | II
(II: 7.43, I: 6.99)

a: COC(=O)N1CC(c2nc(-c3ccc(C)c(NC(=O)c4cnc5ccc(C)cn45)c3)no2)C1 [F62]
b: COC(=O)N1CC(c2nc(-c3ccc(C)c(NC(=O)c4cnc5ccccn45)c3)no2)C1 [F15]
c: Cc1ccc(-c2noc(C[C@@H]3CCN(S(C)(=O)=O)C3)n2)cc1NC(=O)c1cnc2ccccn12 [F38]
Ask | Arrange these compounds by their pIC50, starting with the largest number. Write out the labels following the order that was asked for.
Reply | b, a, c

a: [2H]c1c([2H])c([2H])n2c(C(=O)Nc3cc(-c4noc(C5CN(C(=O)OC)C5)n4)ccc3C)cnc2c1[2H] [F76]
b: COC(=O)N1CC(c2nc(-c3ccc(C)c(NC(=O)c4cnc5ccc(COCCF)cn45)c3)no2)C1 [F96]
Ask | Which has the higher pIC50, a or b ? Please identify the chosen entry by its label.
Reply | b

P: Cc1ccn2c(C(=O)Nc3cc(-c4noc(N5CCCC(C(F)(F)F)C5)n4)ccc3C)cnc2c1 (stereo not drawn) [F93]
Q: Cc1ccc(-c2noc(CN3CCC(F)(F)CC3)n2)cc1NC(=O)c1cnc2ccccn12 [F30]
Ask | Which has the higher pIC50, P or Q ? Please identify the chosen entry by its label.
Reply | Q

---

Target: c-kit (Homo sapiens)
Construct: human Mo7e cells which endogenously express c-kit; endogenous in cells; host or cells: human Mo7e cells (promegakaryocytic leukemia line), stimulated with human recombinant SCF
Assay: Mo7e cell proliferation assay (SCF dependent proliferation)
Type: cell-based
Settings: Table 2; human Mo7e cells stimulated with SCF, 48 hours, CellTiter Glo; 1% FBS; read-out: c-kit (Mo7e)
pIC50: −log10 of the molar value.
RECORDED_ENDPOINT: pIC50

- COMPOUND: "Cc1ccc(-c2noc(C3CCCNC3)n2)cc1NC(=O)c1cnc2ccccn12 (stereo not drawn) [F285]"
  pIC50: 5.78

I: Cc1ccc(-c2noc([C@H]3C[C@@H](O)CN3S(C)(=O)=O)n2)cc1NC(=O)c1cnc2ccc(F)cn12
II: COC(=O)N1CC(c2nc(-c3ccc(C)c(NC(=O)c4cnc5ccc(C(C)=O)cn45)c3)no2)C1
Ask | Dear colleague, could you let me know whether I or II has the lower recorded pIC50? Thanks. Please identify the chosen entry by its label.
Reply | I

Reference for the values: patent US8754071B2
